# TARGET OR SYSTEM: Murine Tyrosinase (Mus musculus, UniProt P11344)
# Construct: supernatant was dialyzed against 50 mM sodium phosphate buffer (pH 6.8) and then used as a source of murine tyrosinase; endogenous in cells
# Sequence (P11344 19-533): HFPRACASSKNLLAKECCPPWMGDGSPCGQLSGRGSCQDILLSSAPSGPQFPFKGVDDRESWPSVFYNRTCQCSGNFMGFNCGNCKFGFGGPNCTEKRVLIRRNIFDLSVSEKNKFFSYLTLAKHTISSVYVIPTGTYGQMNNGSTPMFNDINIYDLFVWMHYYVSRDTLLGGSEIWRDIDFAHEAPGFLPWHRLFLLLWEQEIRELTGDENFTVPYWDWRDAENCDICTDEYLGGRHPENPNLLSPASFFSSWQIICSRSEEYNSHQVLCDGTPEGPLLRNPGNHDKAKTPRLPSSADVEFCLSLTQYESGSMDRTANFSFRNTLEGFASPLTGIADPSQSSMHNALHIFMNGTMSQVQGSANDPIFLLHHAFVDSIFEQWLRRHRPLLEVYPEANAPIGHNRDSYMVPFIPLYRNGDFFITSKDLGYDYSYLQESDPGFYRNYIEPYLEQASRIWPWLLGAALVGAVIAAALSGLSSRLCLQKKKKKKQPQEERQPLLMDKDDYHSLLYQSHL
# ASSAY SUMMARY: Inhibitory effects on murine tyrosinase prepared from melanoma B-16 cells
# CONDITION NOTES: tyrosinase from melanoma B-16 cells
READOUT: pIC50
Would you please state pIC50, meaning minus log10 of the concentration in mol/L, as a bare number?

Prompt: Record request: pIC50 value, item OC[C@H]1O[C@@H](Oc2cc(O)cc(/C=C/c3ccc(O[C@@H]4O[C@H](CO)[C@@H](O)[C@H](O)[C@H]4O)cc3O)c2)[C@H](O)[C@@H](O)[C@@H]1O [Mulberroside A, mulberroside A]
Completion: 4.21
